EXPERIMENTAL_TARGET: Galectin-3 (Homo sapiens, UniProt P17931)
Sequence (P17931 whole entry): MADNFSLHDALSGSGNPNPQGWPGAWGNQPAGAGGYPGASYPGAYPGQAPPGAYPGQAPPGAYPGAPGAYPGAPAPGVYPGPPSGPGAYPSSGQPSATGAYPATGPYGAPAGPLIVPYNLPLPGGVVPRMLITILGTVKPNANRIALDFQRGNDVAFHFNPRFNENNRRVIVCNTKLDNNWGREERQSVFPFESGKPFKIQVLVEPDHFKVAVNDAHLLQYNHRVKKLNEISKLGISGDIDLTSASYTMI
TEST_DETAILS: Binding affinity to human galectin 3 by surface plasma resonance analysis
Kindly state EC50 for each of the entries shown.

Completed entries (count: 2):
| SMI | EXPERIMENTAL_TARGET | MEASURED_VALUE |
| --- | --- | --- |
| [N-]=[N+]=NCCOCCOCCO[C@@H]1O[C@H](CO)[C@@H](O[C@@H]2O[C@H](CO)[C@H](O)[C@H](O)[C@H]2O)[C@H](O)[C@H]1O | Galectin-3 (Homo sapiens, UniProt P17931) | > 1 mM |
| CC(=O)N[C@H]1[C@@H](OCCOCCOCCN=[N+]=[N-])O[C@H](CO)[C@H](O)[C@@H]1O | Galectin-3 (Homo sapiens, UniProt P17931) | > 1 mM |

Now consider the entry below.
Ask | Quick one: give measured EC50 for CC(=O)N[C@H]1[C@@H](OCCOCCOCCN=[N+]=[N-])O[C@H](CO)[C@H](O)[C@@H]1O[C@@H]1O[C@H](CO)[C@H](O)[C@H](O)[C@H]1O
Reply | > 1 mM
